B1: PPP2R2C (parent)
chain: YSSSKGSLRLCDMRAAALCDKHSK

- Variants of: B1
- ASSAY: protein stability index of a GFP-peptide fusion (GPS, HEK-293T) (PSI 1-6); higher = more stable;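 also: lentivirally expressed fusions sorted by FACS into six bins by GFP to DsRed ratio, PSI derived from sequencing read proportions per bin multiplied by bin number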
- CONDITION CONTEXT: c terminus: a fixed tail appended
Label True when protein stability index >= 3; otherwise False.

Answered examples (5):
VARIANT NOTATION	CLASS NAME
R14V	False
L18Y	False
S23A	False
L10N	True
Y1N	True

Ask: Could you tell me if the measured protein stability index of L18W reaches 3 or more?
Result: False

Ask: Could you tell me if the measured protein stability index of C11H reaches 3 or more?
Result: True

Ask: Could you tell me if the measured protein stability index of H22G reaches 3 or more?
Result: False
